- Test summary: Pharmacokinetics after intravenous and oral administration in rats
- Type: in vivo
- Condition context: rat, plasma, iv dosing, dose 1 mg/kg (Ex. 9: 0.6, Ex. 18: 0.5, Ex. 50: 0.96 mg/kg)
Readout: half-life (h)

• CCC1CN(c2ccc(C#N)cn2)CCC1Nc1nc(Nc2ccn3c(C)cnc3c2)ncc1Cl (stereo not drawn) = 1.1
• Cc1nc2cc(Nc3ncc(Cl)c(NC4CCN(c5ccc(C#N)nn5)CC4)n3)ccn2n1 = 2.6
• Cc1cnc2cc(Nc3ncc(Cl)c(NC4CCN(c5ccc(C#N)cn5)CC4)n3)cnn12 = 0.72

* * *

- Test summary: Pharmacokinetics after intravenous and oral administration in rats
- Type: in vivo
- Condition context: rat, plasma, iv dosing, dose 1 mg/kg (Ex. 9: 0.6, Ex. 18: 0.5, Ex. 50: 0.96 mg/kg)
- Procedure: The LC/MS/MS system used in the analysis consists of an Agilent 1200 Series vacuum degasser, binary pump, well-plate autosampler, thermostatted column compartment, the Agilent G6430 Triple Quadrupole Mass Spectrometer with an electrosprayionization (ESI) source. Quantitative analysis was carried out using MRM mode. The parameters for MRM transitions are in the Table A. […] The compounds disclosed herein are assessed in pharmacokinetic studies in mice, rats, dogs or monkeys. […]
Readout: half-life

• CN(c1nc(Nc2ccc3ncnn3c2)ncc1Cl)C1CCN(c2ccc(C#N)cn2)CC1 = 48.6 min
• Cc1nc2cc(Nc3ncc(Cl)c(NC4CCN(c5ccc(C#N)cn5)CC4)n3)ccn2n1 = 91.8 min
• CC(C)(O)Cc1nc2ccc(Nc3ncc(Cl)c(NC4CCN(c5ccc(C#N)cn5)CC4)n3)cn2n1 = 87 min
• Cc1nc2cc(Nc3ncc(Cl)c(NC4CCN(c5ccc(C#N)cn5)CC4)n3)ccc2n1C = 64.8 min
• Cc1nc2cc(Nc3ncc(Cl)c(NC4CCN(c5ccc(C#N)nn5)CC4)n3)ccc2n1C = 36 min
• CN(C)C(=O)c1nc2cc(Nc3ncc(Cl)c(NC4CCN(c5ccc(C#N)cn5)CC4)n3)ccn2n1 = 84.6 min
• N#Cc1ccc(N2CCC(Nc3nc(Nc4ccn5cc(C(F)F)nc5c4)ncc3Cl)CC2)nn1 = 33.6 min
• CC(C)(O)c1nc2cc(Nc3ncc(Cl)c(NC4CCN(c5ccc(C#N)cn5)CC4)n3)ccn2n1 = 279 min
• CC(C)(O)Cc1nc2cc(Nc3ncc(Cl)c(NC4CCN(c5ccc(C#N)cn5)CC4)n3)ccn2n1 = 59.2 min
• Cn1cnc2cc(Nc3ncc(Cl)c(NC4CCN(c5ccc(C#N)cn5)CC4)n3)ccc21 = 60.6 min
• CC(C)(O)c1cnc2cc(Nc3ncc(Cl)c(NC4CCN(c5ccc(C#N)cn5)CC4)n3)ccn12 = 80.4 min
• CC(C)(O)c1nc2cc(Nc3ncc(Cl)c(NC4CCN(c5ccc(C#N)cc5)CC4)n3)ccn2n1 = 79.8 min
• Cc1cnc2cc(Nc3ncc(Cl)c(NC4CCN(c5ccc(C#N)cn5)CC4)n3)ccn12 = 63 min
• CC(C)(O)Cn1nnc2cc(Nc3ncc(Cl)c(NC4CCN(c5ccc(C#N)cn5)CC4)n3)ccc21 = 56.4 min
• Cc1c(Nc2ncc(Cl)c(NC3CCN(c4ccc(C#N)nn4)CC3)n2)ccn2c(C)cnc12 = 39.6 min
• Cn1nnc2cc(Nc3ncc(Cl)c(NC4CCN(c5ccc(C#N)nn5)CC4)n3)ccc21 = 46.8 min
• Cc1cn2ncc(Nc3ncc(Cl)c(NC4CCN(c5ccc(C#N)cn5)CC4)n3)cc2n1 = 55.8 min
• N#Cc1ccc(N2CCC(Nc3nc(Nc4ccn5ccnc5c4)ncc3Cl)CC2)nn1 = 43.8 min
• CC(C)(O)Cc1cn2cc(Nc3ncc(Cl)c(NC4CCN(c5ccc(C#N)cn5)CC4)n3)ccc2n1 = 42 min
• N#Cc1ccc(N2CCC(Nc3nc(Nc4cnn5ccnc5c4)ncc3Cl)CC2)nc1 = 35.4 min
• N#Cc1ccc(N2CCC(Nc3nc(Nc4ccn5c(C(F)F)nnc5c4)ncc3Cl)CC2)nc1 = 157 min
• CC(O)Cn1cnc2cc(Nc3ncc(Cl)c(NC4CCN(c5ccc(C#N)cn5)CC4)n3)cnc21 (centres unmarked) = 51.6 min
• CC(C)(O)Cc1nc2cc(Nc3ncc(Cl)c(NC4CCN(c5ccc(C#N)nn5)CC4)n3)ccn2n1 = 50.6 min
• CC(C)(O)c1cn2ccc(Nc3ncc(Cl)c(NC4CCN(c5ccc(C#N)cn5)CC4)n3)cc2n1 = 56.4 min
• CC(O)Cn1ccc2cc(Nc3ncc(Cl)c(NC4CCN(c5ccc(C#N)cn5)CC4)n3)cnc21 (centres unmarked) = 47.4 min
• CCC1CN(c2ccc(C#N)cn2)CCC1Nc1nc(Nc2ccn3c(C)nnc3c2)ncc1Cl (centres unmarked) = 36 min
• CCC1CN(c2ccc(C#N)cn2)CCC1Nc1nc(Nc2ccn3cnnc3c2)ncc1Cl (centres unmarked) = 265 min
• CC(C)(O)Cc1nc2ccc(Nc3ncc(Cl)c(NC4CCN(c5ccc(C#N)nn5)CC4)n3)cn2n1 = 45.7 min
• CCC1CN(c2ccc(C#N)cn2)CCC1Nc1nc(Nc2ccn3ccnc3c2)ncc1Cl (centres unmarked) = 283 min
• CC(C)(O)c1nc2cc(Nc3ncc(Cl)c(NC4CCN(c5ccc(C#N)nn5)CC4F)n3)ccn2n1 (centres unmarked) = 32.3 min
• Cn1cnc2cc(Nc3ncc(Cl)c(NC4CCN(c5ccc(C#N)nn5)CC4)n3)ccc21 = 63 min
• Cc1nc2ccc(Nc3ncc(Cl)c(NC4CCN(c5ccc(C#N)nn5)CC4)n3)cn2n1 = 72 min
